Tested System: Jun bZIP R263A;Fos bZIP R157A (human;human, UniProt P05412;P01100 252-315;137-200, R263A|R157A)
Sequence (P05412 252-315 R263A, chain 1 of 2): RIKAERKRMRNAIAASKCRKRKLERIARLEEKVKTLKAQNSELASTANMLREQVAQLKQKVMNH
Sequence (P01100 137-200 R157A, chain 2 of 2): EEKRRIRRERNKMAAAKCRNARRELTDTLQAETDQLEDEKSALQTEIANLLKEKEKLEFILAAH
Test: ITC
pKd: −log10 of the molar value.

[
  {
    "Binder": "TRE duplex 15-mer (dsDNA) DNA 1: CGCGTGACTCACCCC DNA 2: GGGGTGAGTCACGCG",
    "pKd": 5.76
  }
]
